System: HCT116 (ATCC – CCL-247, colon carcinoma)
Experiment: MTT cell viability assay, HCT116
Format: cell-based
Details: Homo sapiens, HCT-116, read-out: IC50 HCT116
measured.attribute: IC50

- compound: "Cc1cc2c(c(=O)o1)C(c1ccc(OCc3cn(-c4ccc(Br)cc4)nn3)cc1)C(C#N)=C(N)O2 (centres unmarked) [Compound 17c]"
  measured.result: "> 200 µM"
- compound: "Cc1ccn(-c2ccc(C3C(C#N)=C(N)OC4=C3C(=O)CCC4)cc2)n1 (centres unmarked) [Compound 7a]"
  measured.result: "139 µM"
- compound: "N#CC1=C(N)Oc2c(c(=O)oc3ccccc23)C1c1ccc(-n2cnnn2)cc1 (centres unmarked) [Compound 15g]"
  measured.result: "> 200 µM"
- compound: "Cc1cn(-c2ccc(C3C(C#N)=C(N)OC4=C3C(=O)CC(C)(C)C4)cc2)cn1 (centres unmarked) [Compound 8b]"
  measured.result: "129 µM"
- compound: "Cc1ccc(-n2cc(COc3ccc(C4C(C#N)=C(N)Oc5cc(C)oc(=O)c54)cc3)nn2)cc1 (centres unmarked) [Compound 17d]"
  measured.result: "> 200 µM"
- compound: "Cc1cc2c(c(=O)o1)C(c1ccc(-n3cnnn3)cc1)C(C#N)=C(N)O2 (centres unmarked) [Compound 17g]"
  measured.result: "> 200 µM"
- compound: "COc1ccc(-n2cc(COc3ccc(C4C(C#N)=C(N)Oc5c4c(=O)oc4ccccc54)cc3)nn2)cc1 (centres unmarked) [Compound 15e]"
  measured.result: "> 200 µM"
- compound: "Cc1cc(C)n(-c2ccc(C3C(C#N)=C(N)OC4=C3C(=O)CCC4)cc2)n1 (centres unmarked) [Compound 7c]"
  measured.result: "194 µM"
